- SUBJECT OF TEST: Kallikrein (KL) (Sus scrofa, UniProt P00752)
- Sequence (P00752 8-246): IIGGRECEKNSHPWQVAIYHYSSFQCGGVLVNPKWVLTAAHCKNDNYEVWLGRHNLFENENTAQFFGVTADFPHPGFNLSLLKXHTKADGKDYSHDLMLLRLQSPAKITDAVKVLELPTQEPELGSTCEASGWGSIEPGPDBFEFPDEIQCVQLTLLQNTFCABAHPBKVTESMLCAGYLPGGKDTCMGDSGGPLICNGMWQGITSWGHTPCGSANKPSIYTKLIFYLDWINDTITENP
- Format: biochemical, Pig
- CONDITION DETAILS: TABLE 4, CHA substrates; So = 0.54; pH 7.9; 37° C., 10 minutes; 1.0 BAEE-U/ml
Is Selectivity KL, absorbance (O.D.) at 645 nm at least 0.007 O.D.? Then yes (1). If not, no (0).

>>> class_label("NCCCC[C@H](NC(=O)[C@H](Cc1ccccc1)NC(=O)[C@H](N)CCCCNC(=O)c1ccccc1)C(=O)Nc1ccc(O)c(C(=O)O)c1 [NPC-14]")
"yes (1)"
>>> class_label("NCCCC[C@H](NC(=O)[C@H](Cc1ccccc1)NC(=O)[C@H](N)CCCCNS(=O)(=O)c1ccccc1)C(=O)Nc1ccc(O)c(C(=O)O)c1 [NPC-15]")
"yes (1)"
>>> class_label("Cc1ccc(S(=O)(=O)NCCCC[C@H](N)C(=O)N[C@@H](Cc2ccccc2)C(=O)N[C@@H](CCCCN)C(=O)Nc2ccc(O)c(C(=O)O)c2)cc1 [NPC-5, HL-Lys(Tos)PheLysCHA.2HCl]")
"no (0)"
>>> class_label("CC(=O)NCCCC[C@@H](N)C(=O)N[C@@H](Cc1ccccc1)C(=O)N[C@@H](CCCCN)C(=O)Nc1ccc(O)c(C(=O)O)c1 [NPC-4, HD-Lys(AC)PheLysCHA.2HCl]")
"no (0)"
>>> class_label("Cc1ccc(CCNC(=O)CC[C@@H](N)C(=O)N[C@@H](Cc2ccccc2)C(=O)N[C@@H](CCCCN)C(=O)Nc2ccc(O)c(C(=O)O)c2)cc1 [NPC-24]")
"yes (1)"
>>> class_label("NCCCC[C@H](NC(=O)[C@H](Cc1ccccc1)NC(=O)[C@H](N)CCCCNC(=O)Cc1ccccc1)C(=O)Nc1ccc(O)c(C(=O)O)c1 [NPC-16]")
"yes (1)"
>>> class_label("CS(=O)(=O)NCCCC[C@@H](N)C(=O)N[C@@H](Cc1ccccc1)C(=O)N[C@@H](CCCCN)C(=O)Nc1ccc(O)c(C(=O)O)c1 [NPC-25]")
"no (0)"
>>> class_label("NCCCC[C@H](NC(=O)[C@H](Cc1ccccc1)NC(=O)[C@H](N)CC(=O)OC1CCCCC1)C(=O)Nc1ccc(O)c(C(=O)O)c1 [NPC-22]")
"yes (1)"
>>> class_label("CC(C)OC(=O)C[C@@H](N)C(=O)N[C@@H](Cc1ccccc1)C(=O)N[C@@H](CCCCN)C(=O)Nc1ccc(O)c(C(=O)O)c1 [NPC-21]")
"yes (1)"
>>> class_label("CCCC(=O)NCCCC[C@@H](N)C(=O)N[C@@H](Cc1ccccc1)C(=O)N[C@@H](CCCCN)C(=O)Nc1ccc(O)c(C(=O)O)c1 [NPC-19]")
"no (0)"
>>> class_label("NCCCC[C@H](NC(=O)[C@H](Cc1ccccc1)NC(=O)[C@H](N)CCCCNS(=O)(=O)c1ccc2ccccc2c1)C(=O)Nc1ccc(O)c(C(=O)O)c1 [NPC-8, HD-Lys(NaS)PheLysCHA.2HCl]")
"yes (1)"
>>> class_label("NCCCC[C@H](NC(=O)[C@H](Cc1ccccc1)NC(=O)[C@H](N)CCCCNS(=O)(=O)c1cccc2ccccc12)C(=O)Nc1ccc(O)c(C(=O)O)c1 [NPC-17]")
"no (0)"
